# System: K4 kissing-loop RNA reporter
# testMethodNotes: apparent KD of K4 kissing-loop reporter; higher = weaker reporter binding
# measurementParameters: Eterna round: R107; input ligand: tryptophan 2.4 mM
# key: entry, value: apparent KD of K4 kissing-loop reporter
measuredMetric: apparent KD of K4 kissing-loop reporter (nM)

[
  {
    "primarySequence": "AAGUGUCAUUAGACACACUGAUGUAUAAACUAGGAUAUGCUGAUAAGCAGAAGGAGUGAUGUUCCUUUCAACAUCAGAAUUAAAU [KL-XFMN-A1]",
    "targetOfAssay": "K4 kissing-loop RNA reporter",
    "measuredMetric": "apparent KD of K4 kissing-loop reporter",
    "recordedNumber": 126
  },
  {
    "primarySequence": "AGUGAUGUUUCUUUUAAGAGUGAUGUUUUUCGAGGACCGGUACGGCCGCCACUCGAGUGAUGAGUGCGUUGUUGUGAUGUUUAGU [#12 K4 Tryptophan A Exclusion]",
    "targetOfAssay": "K4 kissing-loop RNA reporter",
    "measuredMetric": "apparent KD of K4 kissing-loop reporter",
    "recordedNumber": 303
  },
  {
    "primarySequence": "GGAUGGUAGGCGGCCGCCACUAAAACAGAACACAUACAAGCCAGUGAUGUUGGUAUGAUGGUGUAUAGGACCGGGCCUAGAUAGA [Exclusion - Tryptophan B (Freestyle 5)]",
    "targetOfAssay": "K4 kissing-loop RNA reporter",
    "measuredMetric": "apparent KD of K4 kissing-loop reporter",
    "recordedNumber": 196
  },
  {
    "primarySequence": "ACAUCGGUUGAGAGUGAUGUUCCUUGUGUUCGAGGACCGGUACGGCCGCCACUCGGGUAGAAAAUAACAGAUGUGUUUCAUUUUU [BDazzled - #17 SS Tryptophan A]",
    "targetOfAssay": "K4 kissing-loop RNA reporter",
    "measuredMetric": "apparent KD of K4 kissing-loop reporter",
    "recordedNumber": 271
  },
  {
    "primarySequence": "GCCCUCUUAACGGCCGCCACUAUAUUUAUGAUCUCUAGUAAGUGAUGUUUACUCCGGCUUAUAGGUAGGACCGGGUUAUUAUCUU [theeternabot_sameState_KL_Trp_B_39]",
    "targetOfAssay": "K4 kissing-loop RNA reporter",
    "measuredMetric": "apparent KD of K4 kissing-loop reporter",
    "recordedNumber": 181
  },
  {
    "primarySequence": "CACCCAGUCCUCGAUACCAGACUGGCACGUCAAAAGGUCCAGUGAUGUUGAGCCUAACAAGUCCCUUGGCAGCGACCAGUGUAUU [theeternabot_exclusion_KL_Theo_B_30]",
    "targetOfAssay": "K4 kissing-loop RNA reporter",
    "measuredMetric": "apparent KD of K4 kissing-loop reporter",
    "recordedNumber": 623
  },
  {
    "primarySequence": "AGAUAGGGCUGAAGGAGCGUCGGAGAAGAGAAGAAGAAAUCCAGUGAUGUUGGAUAAAUCCGACAGGUAGGUCGCAGUUUUAUGA [hbob_SS_Arginine_B_2t137]",
    "targetOfAssay": "K4 kissing-loop RNA reporter",
    "measuredMetric": "apparent KD of K4 kissing-loop reporter",
    "recordedNumber": 119
  },
  {
    "primarySequence": "AAGGUAUCACCAACUUGUAACAUAGGUGAUACCAGCAUCGAAAGAUGCCCUUGGCAGCACCAACUUGCAGUGAUGUUGCAAGUAA [(T)'-(H)'-(T1)-(T2)-(H1)-(H2)_Design11]",
    "targetOfAssay": "K4 kissing-loop RNA reporter",
    "measuredMetric": "apparent KD of K4 kissing-loop reporter",
    "recordedNumber": 144
  },
  {
    "primarySequence": "AGUGAUGUUCCUCCUCUUGGUCUUGGUGGGCGAGGACCGGUACGGCCGCCACUCGAUGUGGGAGUGAUGUUUCCAUAUGAUGUUU [Tryptophan A]",
    "targetOfAssay": "K4 kissing-loop RNA reporter",
    "measuredMetric": "apparent KD of K4 kissing-loop reporter",
    "recordedNumber": 401
  },
  {
    "primarySequence": "GCCGUAGAUGGAAGGAGCGUGGUAGACUGUUGAAGUGAUGUUUCAACUCAUUAAGCCCAACCACAGGUAGGUCGCCAUCUACGGC",
    "targetOfAssay": "K4 kissing-loop RNA reporter",
    "measuredMetric": "apparent KD of K4 kissing-loop reporter",
    "recordedNumber": 120
  },
  {
    "primarySequence": "UGAUUGGCGAAAGUAGUGAUGUUACGAAUAUAGGAUAUUAGAGGAAUAAGAAGGAUAAGGGAGAAAUAGGUAAAUUGUUGGUUGG [whbob_SS_FMNA__2th170]",
    "targetOfAssay": "K4 kissing-loop RNA reporter",
    "measuredMetric": "apparent KD of K4 kissing-loop reporter",
    "recordedNumber": 100
  }
]

* * *

# System: MS2 coat protein
# testMethodNotes: apparent KD of MS2 coat protein; designed switch direction (-1 OFF switch, 1 ON switch): -1; higher = weaker reporter binding
# measurementParameters: input ligand: FMN 200 uM
# key: entry, value: apparent KD of MS2 coat protein

[
  {
    "primarySequence": "UAGAUGGGAGGAUAUACGUAGAUGCAGGUUCGUGUGGUGCUACAUGAGGAUCACCCAUGUAGAAGGCCCGUCUU [JL-ex2-2.29 Mayanne mod] (Eterna round: R96, puzzle: Exclusion 2)",
    "apparent KD of MS2 coat protein (µM)": 0.0694
  },
  {
    "primarySequence": "UUUAGUUCAGGAUAUGUAGAAAUUAACAUGAGGAUCACCCAUGUAGAUCCUGAAUUAACUACAGAAGGGAACAUUU [JL-ex5-4.43 Brourd mod] (Eterna round: R97, puzzle: Exclusion 5)",
    "apparent KD of MS2 coat protein (µM)": 0.0513
  },
  {
    "primarySequence": "AAAUCGGCAGGAUAUACAUGAGGAUCACCCAUGUAAAUUUUUCGUUUAACUUGAAUGUGUAGAAGGGCCAUUAA [Ex3 #64] (Eterna round: R97, puzzle: Exclusion 3)",
    "apparent KD of MS2 coat protein (µM)": 0.0248
  },
  {
    "primarySequence": "AAAUUAGCAAGUAGAUCCGACAUGAGGAUCACCCAUGUUAUCUGAAAGAACGCAGCAUAAUUGUGAGCUCGUCUAAA [Sensor-V1 #4] (Eterna round: R97, puzzle: Sensor, turn-off variant 1)",
    "apparent KD of MS2 coat protein (µM)": 0.0937
  },
  {
    "primarySequence": "UUUUACAGGCUUAGAUCCUACAUGAGGAUCACCCAUGUGGUCCGGUGACGUGAGUCACCGGACUAAGCUCGUCUUGU [JL TOV1 3.72] (Eterna round: R97, puzzle: Sensor, turn-off variant 1)",
    "apparent KD of MS2 coat protein (µM)": 0.156
  }
]

* * *

# key: entry, value: apparent KD of MS2 coat protein
# Test system: MS2 coat protein
# testMethodNotes: apparent KD of MS2 coat protein; designed switch direction (-1 OFF switch, 1 ON switch): -1; higher = weaker reporter binding
# measurementParameters: input ligand: none

[
  {
    "primarySequence": "UUUUAUAGAGGAUAUGCGUGAAUAUAUAUUCAUGGAAAUUUACAUGAGGAUCACCCAUGUAGAAGGUUGUGUUU [LRO-Excl2-20-mod 090 by JR] (Eterna round: R97, puzzle: Exclusion 2)",
    "apparent KD of MS2 coat protein / nM": 11.9
  },
  {
    "primarySequence": "GGAUCGAAUGUGAGGAUAUGCAGGUCCUUGGAUCUGCAGAAGGCACAUGAGGAUCACCCAUGUGAUACCGAUCC [Mat - Exclusion 4 - Eli Mod - D42] (Eterna round: R97, puzzle: Brourd's mod of Exclusion 4)",
    "apparent KD of MS2 coat protein / nM": 455
  },
  {
    "primarySequence": "GCUUGUAGAGGAUAUACGAGGGCCCGAGCGGAUAACACCGCACAUGAGGAUCACCCAUGUAGAAGGCUACUAUU [JL-ex2-4.18 ViennaUCT mod] (Eterna round: R97, puzzle: Exclusion 2)",
    "apparent KD of MS2 coat protein / nM": 105
  },
  {
    "primarySequence": "UAUUAGUGAGGAUAUGAGUCGUAGAACAAUAGUACUACGUCUCAGAAGGCACAUGAGGAUCACCCAUGUUCCUU [Mod of Fisker - Jieux - Exclusion 4] (Eterna round: R97, puzzle: Exclusion 4)",
    "apparent KD of MS2 coat protein / nM": 16.1
  }
]

* * *

# key: entry, value: apparent KD of K4 kissing-loop reporter
# Tested on: K4 kissing-loop RNA reporter;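 also: bound reporter read as fluorescence of individual clusters on recovered sequencing chips by microscopy, with normalized cluster intensities fitted with a binding model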
# testMethodNotes: apparent KD of K4 kissing-loop reporter; higher = weaker reporter binding
# measurementParameters: Eterna round: R107; input ligand: tryptophan 2.4 mM

[
  {
    "primarySequence": "CGCGCCCGGCCGGAUACCAGUGACCCGCUGGGAACCGCGGGCCCAGAGUGAUGUUCGGGACACCCUUGGCAGCCGCCUGGGCGUG [#2 Same State - Theophylline B Attempt #5 (HarryS)]",
    "targetOfAssay": "K4 kissing-loop RNA reporter",
    "apparent KD of K4 kissing-loop reporter (nM)": 550
  },
  {
    "primarySequence": "CGCUUUGCGUCCGGUAGUGAUGUUACCAAGCGAGGACCGGUACGGCCGCCACUCGAGUGACAGACGUACUGGUAUCACCCGCUUU",
    "targetOfAssay": "K4 kissing-loop RNA reporter",
    "apparent KD of K4 kissing-loop reporter (nM)": 208
  },
  {
    "primarySequence": "UGAUUGGCAAAAGUAGUGAUGUUACGAAUAUAGGAUAUUAGAGGAAUAAGAAGGAUAAGGGAGAAAUAGGUAAAUUGUUGGUUGG [whbob_SS_FMNA__2th171]",
    "targetOfAssay": "K4 kissing-loop RNA reporter",
    "apparent KD of K4 kissing-loop reporter (nM)": 70.3
  }
]

The origin of these recorded values is the supplement of paper PMC9170038.
